- Tested on: Bacillus subtilis DB104 (SP-AmyQ fusion secretion)
- ASSAY_TEXT: AmyQ secretion efficiency, weighted average sort bin (1 = best secretion, 10 = worst) (bin number (weighted average, 1-10)); higher = lower secretion efficiency
READOUT: AmyQ secretion efficiency
Give the figure by itself; no unit, no explanation.

Item MKKWIYVVLVLSIAGIGGFSVHRASS : provide AmyQ secretion efficiency
6.42

For the sequence MPIFKKVMMCLAVTLVFGSMSFPTLTNSGGFKE , give its measured AmyQ secretion efficiency value.
6.15

Look up and report measured AmyQ secretion efficiency for this entry: MKRLTLVCSIVFILFILFYDLKIGTIPIQDLPVYEESAKTA
5.76

Supply measured AmyQ secretion efficiency of MKNMSCKYQQGVTLFFSFLTIGPLAHAQNS in your reply.
6.89

Look up and state reported AmyQ secretion efficiency for MRKSLITLGLASVISIIVFLIAFTSKTASAETL
2.48

Give the measured AmyQ secretion efficiency for MIAYFGKCLLLVTIMFLGVLFGMSQANHG
4.69

Supply measured AmyQ secretion efficiency of MKLSVKIAGVLTVAAAAMTAKMYLTAKGN in your reply.
7.31

Answer with the recorded AmyQ secretion efficiency for the sequence listed here: MYKKFVPFRRRKKRFFVSFEMMENPHALDY
7.64

Read the entry MKKIVIILFMFILVMSSGFSQFQPSTVFAADK and write its reported AmyQ secretion efficiency.
3.08

Output AmyQ secretion efficiency of MKLAKRVSALTPSTTLAITAKMKEL
6.79

Give reported AmyQ secretion efficiency value for MRMLWRSLALCGLALTLAPCAQVAEP
6.05

Give AmyQ secretion efficiency for MRKKTKNRLISSVLSTVVISSLLFPGAAGCSSK
5.98

State its AmyQ secretion efficiency: MKKRFFGPIILAFILFAGVIAIPS
6.86

Indicate the recorded AmyQ secretion efficiency value for this sequence: MRKLKRVLLLLVTGLFMSLFAVTATASAQTG
1.02

Hello, please tell me recorded AmyQ secretion efficiency for this one: MKLAKRVSALTPSTTLAIVIFAKAKEL
8.15

Answer with the recorded AmyQ secretion efficiency of MKKAFILSAAAAVGLFTFKRRQQASAKEL only.
7.06

Return AmyQ secretion efficiency (reported value) for this sequence: MGGSILIQVMIMFTLLLTMAFSADAADS
5.96

Complete the entry with AmyQ secretion efficiency for MKKRLIAPMLLSAASLAFFAMSGSAQDAAY
6.76

For the sequence MKSKWMSGLLLVAVGFSFTQVMVHIGET , give its measured AmyQ secretion efficiency value.
5.32

Answer with the recorded AmyQ secretion efficiency of MKKTIMSFVAVAALSTTAFGAHFSAKEI only.
4.73

Identify measured AmyQ secretion efficiency corresponding to MKKKQVMLALTAAAGLGLTALHSAPAAKHAPL
4.9

Recall and state the measured AmyQ secretion efficiency for MFNRLFRVCFLAALIMAFVFTLPNSVYAQKP .
2.33

Could you please provide reported AmyQ secretion efficiency for MKKEGKQYSRLCLSLSPLVSTNEVFAATT ? Thanks!
7.68

Note down AmyQ secretion efficiency recorded for MRMLWRSLALCGLALTLAPCAQAAPK
2.07

Given MMFMFLLCVMMLLFSAIASFPVSAQAKDQ , respond with its AmyQ secretion efficiency.
6.02

Name the recorded AmyQ secretion efficiency of the sequence listed here: MLYLKRVLLLLVTGLFMSLFAVTATASAQTG
1.49

Quick one: give measured AmyQ secretion efficiency for MKLAKRVSALTPSTTLAITAKDKEL
6.63

Kindly indicate its recorded AmyQ secretion efficiency. Item: MRSYIKVLTMCFLGLILFVPTALKDNS
7.49
